System: Plasmodium berghei
ASSAY_SUMMARY: Screen against P. berghei liver stage (PbLuc), transformed with Luciferase, at 2uM
Format: functional, HepG2
CONDITION_DETAILS: tested at 2 uM
Hit rate of the full screen: of about 68,000 compounds, about 2,700 (4%) showed an effect of 50% or more. Many of the other results were omitted from the sample, so strong results are more common in it than they were.
VALUE_KIND: INHIBITION (%)

>>> observed_value("Cc1cc(NCCC(=O)NC(C)C)nc(-c2ccncc2)n1")
-1.96
>>> observed_value("Cc1nccc(C(=O)NC(CN2CCCC2=O)c2ccccc2)n1 (centres undefined)")
-45.82
>>> observed_value("c1cc(CN2CCc3ncc(CN4CCCCC4)n3CC2)cs1")
33.47
>>> observed_value("O=C(c1cnccn1)N1C[C@@H]2CN(Cc3cccnc3)CCO[C@@H]2C1")
0.54
>>> observed_value("Cc1cccc(NCc2ncc(C(C)(C)C)o2)c1")
75.37
>>> observed_value("OCCOc1ccc(NCc2cc(F)cc3cccnc23)cn1")
45.56
>>> observed_value("COc1cccc(COCC(=O)N2CCCC(c3ccn[nH]3)C2)c1 (centres undefined)")
14.97
>>> observed_value("COCCN1CCC2(CC1)CC(CC(N)=O)c1ccc(F)cc12 (centres undefined)")
53.06
>>> observed_value("COc1cccc(OC)c1C(C(=O)O)N(C)Cc1c(C)n[nH]c1C (centres undefined)")
17.2
>>> observed_value("CCNC(=O)[C@@H]1C[C@H](N)CN1C1CCN(c2ccccc2OC)CC1")
23.64
>>> observed_value("O=C1COC2(CCN(Cc3nccs3)CC2)CN1CC1CC1")
7.86
>>> observed_value("CS(=O)(=O)CC1(CNc2ccc(C#N)c(C(F)(F)F)c2)CC1")
39.25
>>> observed_value("Cc1noc2ncc(C(=O)N3CCCC3c3ccncc3)cc12 (centres undefined)")
-52.51
>>> observed_value("Cc1ccc(CC(=O)N2Cc3nccn3CC(Cn3cccn3)C2)cc1 (centres undefined)")
-8.05
>>> observed_value("Cc1cc(NCCC(=O)NC2CCCC2)nc(-c2ccncc2)n1")
-82.36
>>> observed_value("Cc1noc(CN(C)CC(c2cccs2)N2CCOCC2)n1 (centres undefined)")
28.88
>>> observed_value("CN(Cc1ccncc1)CC(c1cccs1)N1CCOCC1 (centres undefined)")
-10.66
>>> observed_value("COCCNC(=O)CCNc1cc(C)nc(-c2ccncc2)n1")
69.06
>>> observed_value("Cc1ncoc1C(=O)N1C[C@H]2CCC[C@@]2(COCc2cccnc2)C1")
30.77
>>> observed_value("CCn1cc(CN2CCCN(C(=O)CCN3CCCC3=O)CC2)cn1")
-35.65
>>> observed_value("OCCOc1ccc(NCc2cccc3cccnc23)cn1")
67.44
>>> observed_value("CCn1cc(CN2CCCN(C(=O)c3cccn3C)CC2)cn1")
19.18
>>> observed_value("CCn1cc(CN2CCCN(C(=O)C3=NN(C)C(=O)CC3)CC2)cn1")
59.73
>>> observed_value("c1ccc(N2CCCC3(COCCN(c4nccs4)C3)C2)nc1 (centres undefined)")
-29.98
